Ref: patent US6737383B1

Listed next: entries and their corresponding Velvetleaf plant response rating.
- System: velvetleaf
- TEST METHOD NOTES: Test B pre/postemergence velvetleaf
- Format: in vivo, Abutilon theophrasti
- CONDITION SUMMARY: Rate 125 g/ha; Preemergence; scale of 0 to 10 where 0 is no effect and 10 is complete control
- Method: […] At the same time, these crop and weed species were also treated with postemergence applications of test chemicals formulated in the same manner. […] Treated plants and controls were maintained in a greenhouse for twelve to sixteen days, after which all species were compared to controls and visually evaluated. […]
Respond numerically, and do not add a unit to the figure.

Looking up CC(C)N(C(=O)n1oc(=O)n(CCCCF)c1=O)c1ccc(F)cc1 [Compound 289] , I found its Velvetleaf plant response rating recorded as 6

Looking up CC(C)N(C(=O)n1oc(=O)n(COCc2ccccc2)c1=O)c1ccc(F)cc1 [Compound 261] , I found its Velvetleaf plant response rating recorded as 0

Looking up CC(C)N(C(=O)n1oc(=O)n(Cc2ccccn2)c1=O)c1ccc(F)cc1 [Compound 267] , I found its Velvetleaf plant response rating recorded as 0

Looking up COC(=O)C=CCn1c(=O)on(C(=O)N(c2ccc(F)cc2)C(C)C)c1=O [Compound 263] , I found its Velvetleaf plant response rating recorded as 0

Looking up CC1Cc2cccc(-n3c(=O)on(C(=O)N(c4ccc(F)cc4)C(C)C)c3=O)c2O1 (centres unmarked) [Compound 281] , I found its Velvetleaf plant response rating recorded as 0
